B1: glmS ribozyme (parent)
chain: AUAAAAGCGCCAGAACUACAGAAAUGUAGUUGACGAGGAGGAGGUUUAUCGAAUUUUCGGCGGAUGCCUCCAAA

variants of: B1; assay: kcat; higher = faster cleavage; RNA array; conditions: with glucosamine-6-phosphate
Fewer inactive variants are shown than the library holds.
Record form. Attribute: kcat. Fill in for each entry.
Answers are plain numbers, in s⁻¹.

For each of the variants below, state kcat.
1. G43A U54G
2. A12U G29A A52U
3. G37A G66C
4. A14G A39C

Out:
[0.000123, 0.000494, 0.000578, 0.0183]

For each of the variants below, state kcat.
1. A39G U47A
2. A6U U30C U31G
3. A33U U69C
4. A14U A33C
5. G13C A52G

Out:
1: 0.0304; 2: 9.88e-05; 3: 7.22e-05; 4: 7.66e-05; 5: 1.51e-05
